The reported numbers originate from the supplement of paper PMC13380429.

Tested on: Vero E6 infected with SARS-CoV-2
Assay: morphology score (similarity to uninfected cells); higher = more like uninfected cells
Conditions: 24 h
REPORTED PROPERTY: morphology score
Would you mind answering with just the numeric figure?

Cc1cc(Cn2cnc3c2C[C@@H](C(=O)O)N(C(=O)C(c2ccccc2)c2ccccc2)C3)ccc1N(C)C (10 µM) | 0.0919
CN1CCC[C@@H](CC2c3ccccc3Sc3ccccc32)C1 (racemic) [metixene] (0.833333 µM) | 0.383

Documented morphology score of C1COC(NC(C2CC2)C2CC2)=N1 [rilmenidine] (10 µM) : -0.0313

---

The molecules listed here are annotated with their morphology score.
Tested on: Vero E6 infected with SARS-CoV-2
Assay: morphology score (similarity to uninfected cells); higher = more like uninfected cells
Conditions: 24 h
Lab note: write the figure by itself, no unit.

Some molecules with known morphology score results, for comparison:
CC[C@H]1OC(=O)C[C@@H](O)[C@H](C)[C@@H](O[C@@H]2O[C@H](C)[C@@H](O[C@H]3C[C@@](C)(O)[C@@H](O)[C@H](C)O3)[C@H](N(C)C)[C@H]2O)[C@@H](CC=O)C[C@@H](C)C(=O)/C=C/C(C)=C/[C@@H]1CO[C@@H]1O[C@H](C)[C@@H](O)[C@@H](OC)[C@H]1OC (0.833333 µM) | -0.000376
O=c1[nH]cnc2nc[nH]c12 [hypoxanthine] (10 µM) | 0.0617
COc1ccccc1NC(=O)OCC1CCN(C(=O)OC(C)(C)C)CC1 (10 µM) | 0.0728

The molecule identified as O=C(Nc1ccccc1C(=O)NC1CCCCNC1=O)c1cc2ccccc2s1 (stereo not given) (10 µM) registered its morphology score at 0.0242

Noted for Cc1cccc(NC(=O)N[C@@H]2N=C(c3ccccc3)c3ccccc3N(C)C2=O)c1 (10 µM) : its morphology score reads 0.0212

---

System: Vero E6 infected with SARS-CoV-2
Test: SARS-CoV-2 infection rate relative to infected DMSO; higher = more infection, active = 60 or less
Conditions: 24 h
REPORTED PROPERTY: SARS-CoV-2 infection rate

# count of solved cases: 6
CCn1c(=O)c(-c2ccc(Cl)cc2Cl)cc2cnc(Nc3ccc(N4CCNCC4)c(F)c3)nc21 (0.833333 µM) | 106% (inactive)
CN1C(=O)CC(C)(c2ccccc2)C1=O (configuration not stated) [methsuximide] (10 µM) | 110% (inactive)
COc1ccc(-c2nc(-c3ccc(-c4cccc(Cl)c4)o3)[nH]c2-c2ccc(OC)cc2)cc1 [neurodazine] (10 µM) | 70% (inactive)
C[N@+]1(CC2CC2)CC[C@]23c4c5ccc(O)c4O[C@H]2C(=O)CC[C@@]3(O)[C@H]1C5 [methylnaltrexone] (10 µM) | 118% (inactive)
CC(O)COC[C@H]1O[C@@H]2O[C@H]3[C@H](O)[C@@H](O)[C@@H](O[C@H]4[C@H](O)[C@@H](O)[C@@H](O[C@H]5[C@H](O)[C@@H](O)[C@@H](O[C@H]6[C@H](O)[C@@H](O)[C@@H](O[C@H]7[C@H](O)[C@@H](O)[C@@H](O[C@H]8[C@H](O)[C@@H](O)[C@@H](O[C@H]1[C@H](O)[C@H]2O)O[C@@H]8COCC(C)O)O[C@@H]7COCC(C)O)O[C@@H]6COCC(C)O)O[C@@H]5COCC(C)O)O[C@@H]4COCC(C)O)O[C@@H]3COCC(C)O (stereo partly drawn) [hydroxypropyl-beta-cyclodextrin] (10 µM) | 99% (inactive)
Cc1cc(C)n(-c2cccc([C@H](CC(=O)O)CN3CC[C@@H](CCc4ccc5c(n4)NCCC5)C3)c2)n1 [integrin-antagonist-1] (10 µM) | 111% (inactive)

Next up:
Sure, the documented SARS-CoV-2 infection rate for CCOC(=O)[C@H](CCc1ccccc1)N[C@@H](C)C(=O)N1[C@H](C(=O)O)C[C@H]2CCCC[C@@H]21 [trandolapril] (10 µM) is 106% (inactive)
